// rampo value lookup, one value per entry
- Target: T1, His-tagged P3028 (PGE73) (human, also: His tag, length and end not given here)
- T1 construct: the tag is put first here only for want of a statement; also called His-tag-P3028; not shown: His tag
- T1 peptide: VFDEFKPLVEEPQNLIK
- Assay Protocol: PEPSCAN ELISA: peptide on chip, His-tagged P3028 in solution, anti-His mAb and rampo conjugate
Ends that are not written are not given here.
Readout Type: rampo value

1) KKLDTFFVKLMLFTER (on PEPSCAN card; also called P28R with M in position 11) [SEQ ID NO 16] : > 700 rampo units
2) KKLDTFFVKLSLQTER (on PEPSCAN card; also called P28R with Q in position 13) [SEQ ID NO 23] : > 800 rampo units
3) KKLDTFFVKLQLFTER (on PEPSCAN card; also called P28R with Q in position 11) [SEQ ID NO 15] : > 700 rampo units
4) KKLDTFSVKLSLFTER (on PEPSCAN card; also called P28R with S in position 7) [SEQ ID NO 10] : > 700 rampo units
5) KKLDTFFVKLSLMTER (on PEPSCAN card; also called P28R with M in position 13) [SEQ ID NO 22] : > 800 rampo units
6) KKLDTFFVKLSLNTER (on PEPSCAN card; also called P28R with N in position 13) [SEQ ID NO 25] : > 800 rampo units
7) KKLDTFFVKLSLHTER (on PEPSCAN card; also called P28R with H in position 13) [SEQ ID NO 24] : > 800 rampo units
8) KKLDTFMVKLSLFTER (on PEPSCAN card; also called P28R with M in position 7) [SEQ ID NO 9] : > 700 rampo units

All figures here come from patent US20180177842A1.
